Test system: OV90
Experimental Details: Primary qHTS to identify gynecologic anti-cancer compounds using libraries of approved drugs and bioactive compounds (AID 1345084); note: nearly all actives have a fitted effect of over 55% in size
Condition: Gynecologic cancer cell panel viability, ATPlite luminescence, 48 h; series mostly up to 57.5 µM
Records with an inconclusive call do not appear. Calls of active or inactive are those of the source. Calls come from the whole dose curve; as a rule, active = well fitted cell-killing curve with a large enough effect; inconclusive = small, poorly fitted or top-dose-only effect, or effect the other way; inactive = flat fitted curve, though single readings scatter.
Labels: active, inactive

>  <Molecule>
Cc1nc2ccc(-n3ncc(C(=O)c4cc5ccccc5[nH]4)c3N)cc2[nH]1

>  <Class>
active

$$$$
>  <Molecule>
CC(C)(O)C(=O)N1CCN(c2ccc(C(F)(F)F)c(C3=C(c4c[nH]c5ccccc45)C(=O)NC3=O)c2)CC1

>  <Class>
inactive

$$$$
>  <Molecule>
CCCC(CCC)C(=O)NCc1ccc2c(cnn2-c2ccccc2OC)c1

>  <Class>
inactive

$$$$
>  <Molecule>
CCOc1ccc(CCNC(=O)c2cc3sc(Cl)cc3n2C)cc1OCC

>  <Class>
inactive

$$$$
>  <Molecule>
CS/C=C/C(=O)O[C@@H]1CCC2=CC(=O)C(=C(C)C)C[C@]2(C)[C@H]1C

>  <Class>
inactive

$$$$
>  <Molecule>
CC1(C)CC[C@]2(C(=O)O)CC[C@]3(C)C(=CCC4[C@@]5(C)C[C@@H](O)[C@H](O)[C@@](C)(CO)C5CC[C@]43C)[C@@H]2[C@@H]1O (some centres undefined)

>  <Class>
inactive

$$$$
>  <Molecule>
CCC(C)CNCC(=O)N1CCC2SC=CC2C1COc1cccc(C)c1 (centres undefined)

>  <Class>
inactive

$$$$
>  <Molecule>
Cc1cc(C)c(S(=O)(=O)n2cc(C)cc2C)c(C)c1

>  <Class>
inactive

$$$$
>  <Molecule>
C/C(=C\CO[C@@H]1O[C@H](CO[C@H]2OC[C@](O)(CO)[C@H]2O)[C@@H](O)[C@H](O)[C@H]1O)C(C)(C)O

>  <Class>
inactive

$$$$
>  <Molecule>
S=C(c1ccc(-c2ccc(Cl)c(Cl)c2)o1)N1CCCCC1

>  <Class>
inactive

$$$$
>  <Molecule>
COc1cc(C(C)=O)c(OC)c2c1OC(C)(C)C=C2

>  <Class>
inactive

$$$$
>  <Molecule>
CC(C)(Cc1nc(-c2ccc(O)cn2)no1)C(=O)NC1=C(C(=O)O)CCCC1

>  <Class>
inactive

$$$$
>  <Molecule>
O=C(NCCO)c1cccc(-c2cc(Nc3ccc(OC(F)(F)F)cc3)ncn2)c1

>  <Class>
inactive

$$$$
>  <Molecule>
Cc1cc(-c2ncc(-c3cccnc3)cc2/C=C/c2ccccc2)cnc1-c1cccnc1

>  <Class>
inactive

$$$$
>  <Molecule>
O=c1cc(NCCCN[C@@H]2CCOc3c(Br)cc(Br)cc32)[nH]c2ccsc12

>  <Class>
inactive

$$$$
>  <Molecule>
O=C(O)c1cccc(-c2ccc(-c3cn(C(=O)N4CCCCC4Cc4ccccc4)nn3)cc2)c1 (centres undefined)

>  <Class>
inactive

$$$$
>  <Molecule>
CC(C)(O)C1Cc2c(ccc(C(=O)CCc3ccccc3)c2O)O1 (centres undefined)

>  <Class>
active

$$$$
>  <Molecule>
O=C(CSc1nc2ccccc2c(=O)n1-c1ccccc1)Nc1ccc2c(c1)CCC2

>  <Class>
inactive

$$$$
>  <Molecule>
CC(OC1OCCN(Cc2n[nH]c(=O)[nH]2)C1c1ccc(F)cc1)c1cc(C(F)(F)F)cc(C(F)(F)F)c1 (centres undefined)

>  <Class>
inactive

$$$$
>  <Molecule>
O=C(Nc1cnc(Cl)nc1)c1ccc(F)c(F)c1

>  <Class>
inactive

$$$$
>  <Molecule>
Nc1nc(NC2CC2)cc(-c2cccc(Cl)c2Cl)n1

>  <Class>
inactive

$$$$
>  <Molecule>
CN(C)C(=O)C(=O)c1cn(C)c2cc(Cl)c(C(=O)N3CCC(Cc4ccc(F)cc4)CC3)cc12

>  <Class>
inactive

$$$$
>  <Molecule>
CCN(CC)C(=O)c1ccc(Nc2nc(OCC3CCCCC3)c3[nH]cnc3n2)cc1

>  <Class>
inactive

$$$$
>  <Molecule>
CCOC(=O)c1csc(Nc2ccc(Cl)cc2)n1

>  <Class>
inactive

$$$$
>  <Molecule>
CC(C)OC(=O)N1CCC(Oc2ncnc3c2cnn3-c2ccc(S(C)(=O)=O)cc2F)CC1

>  <Class>
inactive

$$$$
>  <Molecule>
N#Cc1ccc(N2N=C3c4ccc(C(=O)O)cc4CC[C@@H]3[C@@H]2C2CCCC2)cc1Cl

>  <Class>
inactive

$$$$
>  <Molecule>
COc1ccc(CN2CCN(C(=O)CCNC(=O)c3ccc(C(C)(C)C)cc3)CC2)cc1

>  <Class>
inactive

$$$$
>  <Molecule>
CC[C@H]1CN(c2nc(N)c(C(N)=O)nc2Cl)CCN1C1CCN(Cc2ccc(Cl)cc2)CC1

>  <Class>
inactive

$$$$
>  <Molecule>
Cc1cc(-c2nc3cc(F)ccc3s2)ccc1NC(=O)[C@@H](N)CCCCN

>  <Class>
active

$$$$
>  <Molecule>
CC(C)(C)Oc1ccc(OCC2Cc3ccccc3CN2C(=O)c2cccc3ccccc23)cc1 (centres undefined)

>  <Class>
inactive

$$$$
>  <Molecule>
C/C=C(\C)C(=O)O[C@H]1C[C@](C)(O)[C@H]2CC=C(C)[C@H]2[C@@H]2OC(=O)[C@H](C)[C@H]21

>  <Class>
inactive

$$$$
>  <Molecule>
C=C[C@H](/C=C\c1ccc(O)cc1)c1ccc(O)cc1

>  <Class>
inactive

$$$$
>  <Molecule>
Cc1cccc(-c2[nH]ncc2-c2ccc(F)c(-c3cnn(CCO)c3)c2)n1

>  <Class>
inactive

$$$$
>  <Molecule>
CN(C)CC1CCn2c(c(C3=C(c4cn(C)c5ccccc45)C(=O)NC3=O)c3ccccc32)C1 (centres undefined)

>  <Class>
active

$$$$
>  <Molecule>
C=C1C(=O)O[C@@H]2C[C@@]3(C)CCCC(=C)[C@]3(O)C[C@H]12

>  <Class>
inactive

$$$$
>  <Molecule>
O=C(NCCN1CCC(n2c(=O)[nH]c3ccccc32)CC1)c1cc2cc(F)ccc2[nH]1

>  <Class>
inactive

$$$$
>  <Molecule>
C[C@H]1CO[C@@H]2Cn3cc(C(=O)NCc4ccc(F)cc4F)c(=O)c(O)c3C(=O)N12

>  <Class>
inactive

$$$$
>  <Molecule>
Cc1ccc(N2CCN(S(=O)(=O)N3CCCCC3)CC2)c(C)c1

>  <Class>
inactive

$$$$
>  <Molecule>
Cc1c[nH]c2ncnc(N3CCC(CN)(C(=O)Nc4cccc(OC(=O)N(C)C)c4)CC3)c12

>  <Class>
active

$$$$
